Biological target: CCK-B (Cavia porcellus, UniProt H0VZC5)
Construct: Rat pancreas or guinea pig brain was homogenized; from tissue; host or cells: guinea pig brain homogenate (membrane pellet)
Sequence (H0VZC5 1-426): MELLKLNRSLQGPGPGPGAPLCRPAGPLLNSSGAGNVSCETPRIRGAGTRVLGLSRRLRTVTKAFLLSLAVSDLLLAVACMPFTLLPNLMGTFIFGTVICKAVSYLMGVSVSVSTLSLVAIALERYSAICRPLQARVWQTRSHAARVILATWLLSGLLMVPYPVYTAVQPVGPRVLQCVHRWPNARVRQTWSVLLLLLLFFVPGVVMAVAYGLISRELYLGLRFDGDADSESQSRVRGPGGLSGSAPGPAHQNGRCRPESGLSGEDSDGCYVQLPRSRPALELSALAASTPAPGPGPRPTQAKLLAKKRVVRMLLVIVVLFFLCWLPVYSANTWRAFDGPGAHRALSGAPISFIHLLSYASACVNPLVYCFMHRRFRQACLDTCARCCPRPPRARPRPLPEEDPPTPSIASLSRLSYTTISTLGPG
Experiment: Displacement of 125I-CCK-OP binding to guinea pig brain homogenates (CCK-B binding)
Conditions: @ 10 (uM), guinea pig brain membranes; read-out: CCK-B binding GP brain membranes: percent displacement of 125I-CCK-OP
measurement_type: inhibition at 10 µM (%)

inhibition at 10 µM for CC(C)(C)OC(=O)[C@@H]1CN(c2ccccc2)C(=O)[C@@H]1NC(=O)c1ccc2ccccc2c1 (relative stereo) is 35

1 = O=C(N[C@@H]1C(=O)N(c2ccccc2)C[C@@H]1C(=O)N1CCCC1)c1ccc2ccccc2c1 (relative stereo) [Example 53]
2 = O=C(N[C@@H]1C(=O)N(c2ccccc2)C[C@H]1C(=O)O)c1ccc2ccccc2c1 (relative stereo) [41 trans]
*Q* Hi, I'm comparing two records. Which one has the lower inhibition at 10 µM, 1 or 2 ? Selection: enter the item's label.
*A* 2

These data points were gathered from patent US5314886A.
